These entries and their values trace back to patent US20260159512A1.

Biological target: BCAT2 (Homo sapiens, UniProt O15382)
Sequence (O15382 28-392): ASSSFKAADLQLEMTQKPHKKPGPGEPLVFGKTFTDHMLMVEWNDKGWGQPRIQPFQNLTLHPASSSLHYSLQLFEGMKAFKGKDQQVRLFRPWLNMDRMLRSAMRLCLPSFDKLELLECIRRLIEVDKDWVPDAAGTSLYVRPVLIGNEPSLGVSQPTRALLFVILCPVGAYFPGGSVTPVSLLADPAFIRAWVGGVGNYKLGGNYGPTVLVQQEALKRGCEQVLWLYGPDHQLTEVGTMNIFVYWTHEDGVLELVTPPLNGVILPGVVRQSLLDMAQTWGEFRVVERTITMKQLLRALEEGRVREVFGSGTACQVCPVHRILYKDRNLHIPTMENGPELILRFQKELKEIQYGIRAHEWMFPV
Assay: BCAT2 in vitro cell inhibition using engineered A549 cells (KMV cell assay, 13C6-KMV by LC-MS/MS)
Assay type: cell-based
Design: The result was an engineered A549 cell line that expressed endogenous BCAT2; endogenous in cells; host or cells: A549 cells with MUT and BCAT1 knocked out by CRISPR/CAS9
Conditions: average where tested multiple times
Below, each entry is listed with its recorded IC50.
measurement type: IC50

INSERT INTO assay_data (molecule, subject_of_test, measurement_type, result) VALUES
  ('N#Cc1ccc(-c2nc3cnc(-c4nc[nH]n4)cc3n2[C@@H]2CCC[C@H](NC(=O)c3ccc(Cl)s3)C2)c(F)c1', 'BCAT2 (Homo sapiens, UniProt O15382)', 'IC50', '> 1000 nM'),
  ('CC(C)Cc1nc2cnc(-c3ccccn3)cc2n1[C@@H]1C[C@@H](O)C[C@H](NC(=O)c2ncc(Cl)s2)C1 (single isomer, unassigned)', 'BCAT2 (Homo sapiens, UniProt O15382)', 'IC50', '≤ 100 nM'),
  ('COC[C@H]1CCCN1c1cc2c(cn1)nc(-c1ccccc1F)n2[C@@H]1CCC[C@H](NC(=O)c2ncc(Cl)s2)C1', 'BCAT2 (Homo sapiens, UniProt O15382)', 'IC50', '> 1000 nM'),
  ('O=C(N[C@H]1CCC[C@@H](n2c(-c3ncccc3F)nc3cnc(-n4nccn4)cc32)C1)c1ccc(Br)s1', 'BCAT2 (Homo sapiens, UniProt O15382)', 'IC50', '≤ 100 nM'),
  ('COc1cccc(-c2nc3cnc(-c4nc[nH]n4)cc3n2[C@@H]2CCC[C@H](NC(=O)c3ccc(Cl)s3)C2)c1F', 'BCAT2 (Homo sapiens, UniProt O15382)', 'IC50', '≤ 100 nM'),
  ('O=C(N[C@H]1CCC[C@@H](n2c(CC3(C(F)(F)F)CC3)nc3cnc(-c4nc[nH]n4)cc32)C1)c1ncc(Cl)s1', 'BCAT2 (Homo sapiens, UniProt O15382)', 'IC50', '≤ 100 nM'),
  ('CC(C)C(F)c1nc2cnc(-c3ccccn3)cc2n1[C@@H]1CCC[C@H](NC(=O)c2ncc(Cl)s2)C1 (stereo partly shown)', 'BCAT2 (Homo sapiens, UniProt O15382)', 'IC50', '500 to 1000 nM'),
  ('CC(=O)N1CC(NC(=O)c2ncc(C(F)F)s2)CC(n2c(-c3ccccc3F)nc3cnc(-n4nccn4)cc32)C1 (stereo not shown)', 'BCAT2 (Homo sapiens, UniProt O15382)', 'IC50', '≤ 100 nM'),
  ('O=C(N[C@@H]1C[C@@H](O)C[C@H](n2c(-c3ccccc3F)nc3cnc(-c4ccn[nH]4)cc32)C1)c1ncc(Cl)s1 (single isomer, unassigned)', 'BCAT2 (Homo sapiens, UniProt O15382)', 'IC50', '> 1000 nM'),
  ('Cc1cnn(-c2cc3c(cn2)nc(-c2ccccc2F)n3[C@H]2CCC[C@@H](NC(=O)c3ncc(Cl)s3)[C@@H]2O)n1', 'BCAT2 (Homo sapiens, UniProt O15382)', 'IC50', '500 to 1000 nM'),
  ('O=C(N[C@H]1CCC[C@@H](n2c(C3COCCO3)nc3cnc(-c4nc[nH]n4)cc32)C1)c1ncc(Cl)s1 (single isomer, unassigned)', 'BCAT2 (Homo sapiens, UniProt O15382)', 'IC50', '> 1000 nM'),
  ('O=C(N[C@H]1CCC[C@@H](n2c(-c3ncccc3F)nc3cnc(-n4nccn4)nc32)C1)c1ncc(C(F)F)s1', 'BCAT2 (Homo sapiens, UniProt O15382)', 'IC50', '100 to 500 nM'),
  ('CC(C)Cc1nc2cnc(-c3nc[nH]n3)cc2n1[C@H]1C[C@@H](NC(=O)c2ncc(Cl)s2)CN(C)C1 (single isomer, unassigned)', 'BCAT2 (Homo sapiens, UniProt O15382)', 'IC50', '≤ 100 nM');
